Source listed as ChEMBL document CHEMBL1145227.

system_tested: Coagulation factor IX (Homo sapiens, UniProt P00740)
Sequence (P00740 47-191 limits assumed): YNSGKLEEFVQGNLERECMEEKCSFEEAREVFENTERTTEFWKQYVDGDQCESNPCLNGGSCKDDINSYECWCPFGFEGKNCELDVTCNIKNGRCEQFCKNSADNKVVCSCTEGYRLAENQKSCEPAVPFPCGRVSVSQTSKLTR
Sequence (P00740 227-461 limits assumed): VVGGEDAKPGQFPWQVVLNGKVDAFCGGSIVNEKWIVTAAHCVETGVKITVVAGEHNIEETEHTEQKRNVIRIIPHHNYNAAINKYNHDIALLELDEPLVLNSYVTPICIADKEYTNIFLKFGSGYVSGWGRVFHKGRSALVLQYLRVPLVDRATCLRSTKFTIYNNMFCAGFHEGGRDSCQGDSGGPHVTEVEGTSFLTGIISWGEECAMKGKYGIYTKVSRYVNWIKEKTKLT
# Lookup of reported pKi keyed by entry
Entry type: numeric. Quantity: pKi, the -log10 of concentration in molar units.

Answered cases to consult:
compound: N=C(N)c1ccc2scc(C(CC(=O)Nc3ccc(-n4cnc5ccccc54)cc3)Cc3ccccc3)c2c1.O=C(O)C(F)(F)F (stereo unspecified)
system_tested: Coagulation factor IX (Homo sapiens, UniProt P00740)
pKi: 5.90

compound: COC(=O)[C@@H]1CCCCC1NNC(=O)C(Cc1ccccc1)c1csc2ccc(C(=N)N)cc12 (stereo partly specified)
system_tested: Coagulation factor IX (Homo sapiens, UniProt P00740)
pKi: 6.30

Lookup: Given the entry N=C(N)c1ccc2scc(C(Cc3cccc4ccccc34)C(=O)Nc3ccc(-n4cnc5ccccc54)cc3)c2c1.O=C(O)C(F)(F)F (stereo unspecified) , what pKi was observed with Coagulation factor IX (Homo sapiens, UniProt P00740)?
Found: 6.64

Lookup: Given the entry N=C(N)c1ccc2scc(C(Cc3ccccc3)C(=O)Nc3ccc(S(=O)(=O)Nc4ccc(Cl)nn4)cc3)c2c1 (stereo unspecified) , what pKi was observed with Coagulation factor IX (Homo sapiens, UniProt P00740)?
Found: 6.03

Lookup: Given the entry N=C(N)c1ccc2scc([C@H](Cc3ccccc3)C(=O)NC3CCCC[C@H]3C(=O)NCC(N)=O)c2c1 (stereo partly specified) , what pKi was observed with Coagulation factor IX (Homo sapiens, UniProt P00740)?
Found: 6.55

Lookup: Given the entry N=C(N)c1ccc2scc([C@@H](Cc3ccccc3)C(=O)Nc3ccc4ncsc4c3)c2c1 , what pKi was observed with Coagulation factor IX (Homo sapiens, UniProt P00740)?
Found: 6.32

Lookup: Given the entry COC(=O)[C@@H]1CCCCC1NC(=O)C(Cc1ccccc1)c1c[nH]c2ccc(C(=N)N)cc12 (stereo partly specified) , what pKi was observed with Coagulation factor IX (Homo sapiens, UniProt P00740)?
Found: 6.47

Lookup: Given the entry N=C(N)c1ccc2scc(C(Cc3ccccc3)C(=O)Nc3ccc(Oc4ccccc4)cc3)c2c1 (stereo unspecified) , what pKi was observed with Coagulation factor IX (Homo sapiens, UniProt P00740)?
Found: 6.60

Lookup: Given the entry COC(=O)[C@H]1CCCCC1NNC(=O)[C@@H](Cc1ccccc1)c1csc2ccc(C(=N)N)cc12 (stereo partly specified) , what pKi was observed with Coagulation factor IX (Homo sapiens, UniProt P00740)?
Found: 4.38

Lookup: Given the entry N=C(N)c1ccc2scc(C(Cc3ccccc3)C(=O)Nc3ccc4ncsc4c3)c2c1 (stereo unspecified) , what pKi was observed with Coagulation factor IX (Homo sapiens, UniProt P00740)?
Found: 6.11

---

system_tested: Trypsin (Homo sapiens, UniProt P07477+P07478+P35030)
assay_protocol: Inhibitory constant against human trypsin
Format: protein assay
metric: Ki (µM)
Respond numerically; units are µM and should not be typed.

compound: N=C(N)c1ccc2scc(C3(C(=O)Nc4ccc(-n5cnc6ccccc65)cc4)CC3)c2c1.O=C(O)C(F)(F)F
metric: Ki
result_units: µM
readout_value: 0.06

Would you kindly look at the next entry?
Lookup: Record request: Ki value, item CCC(C(=O)Nc1ccc(-n2cnc3ccccc32)cc1)c1csc2ccc(C(=N)N)cc12.O=C(O)C(F)(F)F (centres undefined)
Found: 0.27

---

# Ki measurements, system: Prothrombin (Homo sapiens, UniProt P00734)

Lookup: Given the entry N=C(N)c1ccc2scc(C(Cc3ccccc3)C(=O)Nc3ccc(-n4cnc5ccccc54)cc3)c2c1.O=C(O)C(F)(F)F (centres undefined) , what Ki was observed with Prothrombin (Homo sapiens, UniProt P00734)?
Found: > 6.3 µM

Lookup: Given the entry N=C(N)c1ccc2scc(C(CC(=O)Nc3ccc(-n4cnc5ccccc54)cc3)Cc3ccccc3)c2c1.O=C(O)C(F)(F)F (centres undefined) , what Ki was observed with Prothrombin (Homo sapiens, UniProt P00734)?
Found: 4.2 µM

Lookup: Given the entry N=C(N)c1ccc2scc(C(Cc3cccc4ccccc34)C(=O)Nc3ccc(-n4cnc5ccccc54)cc3)c2c1.O=C(O)C(F)(F)F (centres undefined) , what Ki was observed with Prothrombin (Homo sapiens, UniProt P00734)?
Found: > 6.3 µM

Lookup: Given the entry CCC(C(=O)Nc1ccc(-n2cnc3ccccc32)cc1)c1csc2ccc(C(=N)N)cc12.O=C(O)C(F)(F)F (centres undefined) , what Ki was observed with Prothrombin (Homo sapiens, UniProt P00734)?
Found: > 0.27 µM
